The values you see were collected from patent US20080241904A1.

System: α-isomaltosylglucosaccharide-forming enzyme from Bacillus globisporus C9
Test: Action of α-isomaltosylglucosaccharide-forming enzyme on saccharides as substrates (TLC), enzyme of Strain C9
Assay type: biochemical
Set-up: key: −: it showed no change; +: it showed a slight reduction of the color of substrate spot and the formation of other reaction product; ++: it showed a high reduction of the color of substrate spot and the formation of other reaction product; +++: it showed a substantial disappearance of the color of substrate spot and the formation of other reaction product
Conditions: two units/g substrate, substrate 2% (w/v), 30° C., pH 6.0, 24 hours
Description: The action of α-isomaltosylglucosaccharide-forming enzyme on saccharides as substrates was tested. First, a solution of maltose, maltotriose, maltotetraose, maltopentaose, maltohexaose, maltoheptaose, isomaltose, isomaltotriose, panose, isopanose, α,α-trehalose (may be abbreviated as “trehalose” hereinafter), kojibiose, nigerose, neotrehalose, cellobiose, gentibiose, maltitol, maltotriitol, lactose, sucrose, erlose, selaginose, maltosyl glucoside, or isomaltosyl glucoside was prepared. […]
metric name: Enzymatic action, Enzyme of Strain C9

>>> result("OC[C@H]1O[C@H](O[C@H]2[C@H](O)[C@@H](CO)OC(O)[C@@H]2O)[C@H](O)[C@@H](O)[C@@H]1O (stereo partly drawn)")
"+"
>>> result("OC[C@H]1O[C@@](CO)(O[C@H]2O[C@H](CO)[C@@H](O)[C@H](O)[C@H]2O)[C@@H](O)[C@@H]1O")
"−"
>>> result("OC[C@H]1O[C@H](O[C@H]2[C@H](O)[C@@H](O)[C@H](O)O[C@@H]2CO)[C@H](O)[C@@H](O)[C@@H]1O")
"+"

----------
Tested on: α-isomaltosylglucosaccharide-forming enzyme from Bacillus globisporus C9
Experiment: Action of α-isomaltosylglucosaccharide-forming enzyme on saccharides as substrates (TLC), enzyme of Strain C9
Type: biochemical
Design: key: −: it showed no change; +: it showed a slight reduction of the color of substrate spot and the formation of other reaction product; ++: it showed a high reduction of the color of substrate spot and the formation of other reaction product; +++: it showed a substantial disappearance of the color of substrate spot and the formation of other reaction product
Details: two units/g substrate, substrate 2% (w/v), 30° C., pH 6.0, 24 hours
metric name: Enzymatic action, Enzyme of Strain C9

Solved entries (count: 5):
>>> result("OC[C@H]1O[C@H](O[C@H]2C(O)O[C@H](CO)[C@@H](O)[C@@H]2O)[C@H](O)[C@@H](O)[C@@H]1O (stereo partly shown)")
"+"
>>> result("OC[C@H]1O[C@H](O[C@H]2O[C@H](CO)[C@@H](O)[C@H](O)[C@H]2O[C@H]2O[C@H](CO)[C@@H](O)[C@H](O)[C@H]2O)[C@H](O)[C@@H](O)[C@@H]1O")
"−"
>>> result("OC[C@@H](O)[C@@H](O[C@H]1O[C@H](CO)[C@@H](O)[C@H](O)[C@H]1O)[C@H](O)[C@@H](O)CO")
"−"
>>> result("OC[C@@H](O)[C@@H](O[C@H]1O[C@H](CO)[C@@H](O[C@H]2O[C@H](CO)[C@@H](O)[C@H](O)[C@H]2O)[C@H](O)[C@H]1O)[C@H](O)[C@@H](O)CO")
"+"
>>> result("OC[C@H]1O[C@H](O[C@H]2[C@H](O)[C@@H](O)[C@@H](OC[C@H]3OC(O)[C@H](O)[C@@H](O)[C@@H]3O)O[C@@H]2CO)[C@H](O)[C@@H](O)[C@@H]1O (stereo partly shown)")
"++"

Query block: Suppose we examine the molecule OC[C@H]1O[C@H](O[C@H]2O[C@H](CO)[C@@H](O[C@H]3O[C@H](CO)[C@@H](O)[C@H](O)[C@H]3O)[C@H](O)[C@H]2O)[C@H](O)[C@@H](O)[C@@H]1O [Maltosylglucoside, maltosyl glucoside] ; what Enzymatic action, Enzyme of Strain C9 value has been reported?
Result block: ++

Query block: Same question for OC[C@H]1O[C@H](OC[C@H]2O[C@H](OC[C@H]3OC(O)[C@H](O)[C@@H](O)[C@@H]3O)[C@H](O)[C@@H](O)[C@@H]2O)[C@H](O)[C@@H](O)[C@@H]1O (stereo partly shown) please.
Result block: −

----------
Test system: α-isomaltosylglucosaccharide-forming enzyme from Bacillus globisporus C11 strain
Assay: Specificity of saccharide transferring reaction acceptor, enzyme of Strain C11
Type: biochemical
Set-up: key: −: no saccharide-transferred product was detected through transferring reaction to acceptor; ±: a saccharide-transferred product was detected in an amount of less than one percent through transfer reaction to acceptor; +: a saccharide-transferred product was detected in an amount of at least one percent but less than ten percent through transferring reaction to acceptor; ++: a saccharide-transferred product was detected in an amount of at least ten percent through transferring reaction to acceptor
Settings: 1.6% acceptor, 4% PINE-DEX #100 as donor, one unit/g donor, 30° C., pH 6.0, 24 hours; GLC or HPLC
metric name: Product of saccharide transferring reaction, Enzyme of Strain C11

>>> result("OC[C@H]1O[C@@H]2O[C@H]3[C@H](O)[C@@H](O)[C@@H](O[C@H]4[C@H](O)[C@@H](O)[C@@H](O[C@H]5[C@H](O)[C@@H](O)[C@@H](O[C@H]6[C@H](O)[C@@H](O)[C@@H](O[C@H]7[C@H](O)[C@@H](O)[C@@H](O[C@H]8[C@H](O)[C@@H](O)[C@@H](O[C@H]1[C@H](O)[C@H]2O)O[C@@H]8CO)O[C@@H]7CO)O[C@@H]6CO)O[C@@H]5CO)O[C@@H]4CO)O[C@@H]3CO")
"−"

----------
System: α-isomaltosylglucosaccharide-forming enzyme from Bacillus globisporus C9
Assay: Action of α-isomaltosylglucosaccharide-forming enzyme on saccharides as substrates (TLC), enzyme of Strain C9
Format: biochemical
Set-up: key: −: it showed no change; +: it showed a slight reduction of the color of substrate spot and the formation of other reaction product; ++: it showed a high reduction of the color of substrate spot and the formation of other reaction product; +++: it showed a substantial disappearance of the color of substrate spot and the formation of other reaction product
Details: two units/g substrate, substrate 2% (w/v), 30° C., pH 6.0, 24 hours
metric name: Enzymatic action, Enzyme of Strain C9

>>> result("OC[C@H]1O[C@H](OC[C@H]2OC(O)[C@H](O)[C@@H](O)[C@@H]2O)[C@H](O)[C@@H](O)[C@@H]1O (stereo partly drawn) [Isomaltose, isomaltose]")
"−"
>>> result("OC[C@H]1O[C@H](O[C@H]2O[C@H](CO)[C@@H](O)[C@H](O)[C@H]2O)[C@H](O)[C@@H](O)[C@@H]1O [Trehalose, α,α-trehalose]")
"−"
>>> result("OC[C@H]1O[C@H](OC[C@H]2O[C@H](O[C@H]3[C@H](O)[C@@H](O)C(O)O[C@@H]3CO)[C@H](O)[C@@H](O)[C@@H]2O)[C@H](O)[C@@H](O)[C@@H]1O (stereo partly drawn) [Panose, panose]")
"−"

----------
Tested on: α-isomaltosylglucosaccharide-forming enzyme from Bacillus globisporus C9
Assay: Action of α-isomaltosylglucosaccharide-forming enzyme on saccharides as substrates (TLC), enzyme of Strain C9
Format: biochemical
Set-up: key: −: it showed no change; +: it showed a slight reduction of the color of substrate spot and the formation of other reaction product; ++: it showed a high reduction of the color of substrate spot and the formation of other reaction product; +++: it showed a substantial disappearance of the color of substrate spot and the formation of other reaction product
Settings: two units/g substrate, substrate 2% (w/v), 30° C., pH 6.0, 24 hours
metric name: Enzymatic action, Enzyme of Strain C9

>>> result("OC[C@H]1O[C@H](O[C@H]2[C@H](O)[C@@H](O)[C@@H](O[C@H]3[C@H](O)[C@@H](O)[C@@H](O[C@H]4[C@H](O)[C@@H](O)C(O)O[C@@H]4CO)O[C@@H]3CO)O[C@@H]2CO)[C@H](O)[C@@H](O)[C@@H]1O (stereo partly drawn)")
"+++"
>>> result("O=C[C@H](O)[C@@H](O)[C@H](O[C@@H]1O[C@H](CO)[C@@H](O)[C@H](O)[C@H]1O)[C@H](O)CO")
"−"
>>> result("OC[C@H]1O[C@@H](O[C@H]2O[C@H](CO)[C@@H](O)[C@H](O)[C@H]2O)[C@H](O)[C@@H](O)[C@@H]1O")
"+"

----------
System: α-isomaltosyl-transferring enzyme
Test: Influence of metal ions on activity of α-isomaltosyl-transferring enzyme (Strain C11)
Type: biochemical, Bacillus globisporus C11
Settings: in the presence of 1 mM of each metal ion; None = 100
Give measured Relative activity for each item. Keep answers brief.
Number in %, nothing else.

Query block: Suppose we examine the compound [Mg+2] [Mg^2+] ; what Relative activity value has been reported?
Result block: 91

Query block: Same question for [Ca+2] [Ca^2+] please.
Result block: 91

Query block: Same question for O=C(O)CN(CCN(CC(=O)O)CC(=O)O)CC(=O)O [EDTA] please.
Result block: 98

Query block: Same question for [Al+3] [Al^3+] please.
Result block: 89

Query block: Same question for [Sr+2] [Sr^2+] please.
Result block: 93

Query block: Same question for [Ni+2] [Ni^2+] please.
Result block: 89

Query block: Same question for [Co+2] [Co^2+] please.
Result block: 89

Query block: Same question for [Ba+2] [Ba^2+] please.
Result block: 90

Query block: Same question for [Pb+2] [Pb^2+] please.
Result block: 74

Query block: Same question for [Hg+2] [Hg^2+] please.
Result block: 2

Query block: Same question for [Zn+2] [Zn^2+] please.
Result block: 83

Query block: Same question for [Mn+2] [Mn^2+] please.
Result block: 93

Query block: Same question for [Cu+2] [Cu^2+] please.
Result block: 56
